System: MS2 coat protein
Assay: apparent Kd, MS2 coat protein; higher = weaker binding; RNA-MaP array; FMN 200 µM where present
Conditions: designed as: OFF switch for flavin mononucleotide; no ligand
Reported apparent Kd values for the following sequences.
Give the quantity in nM, number only.

Here are 5 sequences together with their reported answers.
GUGUACAGAGGAUAUACUUGAAUCUAGCGAAGCUAGGUUCGACAUGAGGAUCACCCAUGUAGAAGGCUGUACAC : 12.7
AAGUAGGUAGGAUAUGCAUAGAUAUACAUUCAUGUGGAUUUACAUGAGGAUCACCCAUGUAGAAGGACCUAAUA : 37.5
AAAAAGUGAGGAUAUACAUGAGAAAAAAAAAUGUAAAAAAAACAUGAGGAUCACCCAUGUAGAAGGCACAAAAA : 49.7
UCAGGCUUCGAGAAGGACAUGAGGAUCACCCAUGUGCGUGUGAAGCAGCCAAAAGGCUGCAUCAUGUAGGAUAUCGGAGUCUGC : 81.8
UCCUCACAUGAGGAUCACCCAUGUCAGGAUAUCUGCGAGCAUUGGCCAAGGCCGCUCAGGAGAAGGGACGUCAA : 17.1

Dear colleague, please send me the reported apparent Kd for AAAAAGGUAGGAUAUACGAAAAAAAAGGGUAAAAUAAAUAAACAUGAGGAUCACCCAUGUAGAAGGACCAAAAA when you can. 25.3

Dear colleague, please send me the reported apparent Kd for AAAUCAGCAGGAUAUGCGAUGUUAUGCUAGAUAGCGGGACCACAUGAGGAUCACCCAUGUAGAAGGGCUAGAUA when you can. 34.9

Dear colleague, please send me the reported apparent Kd for CUGCGCUAGGAGAAGGGCUAGAGUGUGAUAUAUUUGCCCGCGAGCACAUGAGGAUCACCCAUGUAGCAGGAUAUCCAAGCCGAU when you can. 8.03

* * *

Test system: MS2 coat protein
Assay: apparent Kd, MS2 coat protein; higher = weaker binding; RNA-MaP array; FMN 200 µM where present
Details: designed as: OFF switch for flavin mononucleotide; no ligand
outcome measure: apparent Kd (nM)
Give the quantity in nM, number only.

Here are 5 sequences together with their reported answers.
UUACGGAUAGAGGAUAUAUUAAGGAAAGUUUCGAUAGAAGGCUAGACAUGAGGAUCACCCAUGUAUAUUGGGAU : 131
AGUGUGGGAGGAUAUACAUGAGGAUCACCCAUGUGAGUUGGCUCACAUGCUACGCUUCGUAGAAGGCCCAAAGA : 88.8
CUUUAUAAUACCUCAUGUACAUGAGGAUCACCCAUGUUAACUAAGGAUAUAUAUAAAUUAAUAAUGUAGAAGGUAGUACUAUUU : 17.3
AAAAAGCGAGGAUAUACAUGAGGAUCACCCAUGUCAAAAGAAUAUAAAGAAAUAGGAAGUAGAAGGCGCAAAAA : 55.9
UUAUUUAGGUAGGAUAUCGAUAUUAAUUAUUAUCGAGAAGGGUCUACAUGAGGAUCACCCAUGUUAGCAUGUAU : 28.1

Dear colleague, please send me the reported apparent Kd for AGCCUACAUGAGGAUCACCCAUGUCAGGAUAUCUCGCAACGUGUCAAGUUCACGUCGCAGAGAAGGGACUCGGG when you can. 55.7

Dear colleague, please send me the reported apparent Kd for AAGAAGGCAGGAUAUACAAAAUAAAAGAAAAGAAAGAAAGAACAUGAGGAUCACCCAUGUAGAAGGGUCAAGAA when you can. 59.3

* * *

Test system: MS2 coat protein
Experiment: apparent Kd, MS2 coat protein; higher = weaker binding; RNA-MaP array; FMN 200 µM where present
Details: designed as: ON switch for flavin mononucleotide; no ligand
outcome measure: apparent Kd (nM)
Give the quantity in nM, number only.

Please report apparent Kd with MS2 coat protein for item GUAGCAUACCGAGGAUAUUCAUAGCGGAAACGCACAUGAGGAUCACCCAUGUGGCGAAAGCCUUGGGAGAAGGCGGAAUGCUAC . 118

* * *

System: MS2 coat protein
Test: apparent Kd, MS2 coat protein; higher = weaker binding; RNA-MaP array
Details: designed as: ON switch for tryptophan; no ligand
Reported apparent Kd values for the following sequences.
Give the quantity in nM, number only.

Dear colleague, please send me the reported apparent Kd for AAUAUUAUGUCGGCCGCCACUUCCCACAAGAGGUGCCUGCACCCACAUGAGGAUCACCCAUGUCGAAGGACCGGGACGCUCAAUU when you can. 16.8

Dear colleague, please send me the reported apparent Kd for UAGUACAUGAGGAUCACCCAUGUCGGAGGUCGAGGACCGGUACGGCCGCCACUCGGUCAUGCCCUACGAUACGACAGGAAUCUGU when you can. 22.2

Dear colleague, please send me the reported apparent Kd for UCUCACAUGAGGAUCACCCAUGUUAAGGCCCGAGGACCGGUACGGCCGCCACUCGUUGGAAGCCGGUAACGUACGAAUCUUCCGU when you can. 17.9

Dear colleague, please send me the reported apparent Kd for UACCUUAACACGGCCGCCACUCUCUAAUAGGAUCAUGGUACCGCACAUGAGGAUCACCCAUGUUUGAGGACCGGGUGUUAUGAAG when you can. 15.1

* * *

Tested on: MS2 coat protein
Experiment: apparent Kd, MS2 coat protein; higher = weaker binding; RNA-MaP array; FMN 200 µM where present
Settings: designed as: OFF switch for flavin mononucleotide; no ligand
Reported apparent Kd values for the following sequences.
Give the quantity in nM, number only.

AGGGAGUAAGGAUAUGCUGCUCGUCACUUGCGUGAUGAGUAGCAGAAGGUACAUGAGGAUCACCCAUGUAAAGA : 30
ACAUGAGGAUCACCCAUGUUAUCCGGGACUUCAAUUAUUUCUAGAAGGCUGUUUACUUGUUAGUCAGAGGAUAUAGAAUUAAAU : 10.7
AGCUGUGGCCGAGGAUAUCUAAAUUCUUAAAACGAAAUAUAAUCGAACAUGAGGAUCACCCAUGUAGAGAAGGCGGUCUCAGCA : 19.8

From here, focus on the item given below.
Dear colleague, please send me the reported apparent Kd for CCAUCAGCGAACGUAUCGGUUGGACAUGAGGAUCACCCAUGUAGAAGGACAGGAGUAUUACGGCUGUAGGAUAUACAUUUAGUG when you can. 21.3

* * *

Tested on: MS2 coat protein
Experiment: apparent Kd, MS2 coat protein; higher = weaker binding; RNA-MaP array
Conditions: ligand present: flavin mononucleotide; designed as: ON switch for flavin mononucleotide
outcome measure: apparent Kd (µM)
Give the quantity in µM, number only.

Here are 10 sequences together with their reported answers.
CAACACGGAGAGAAGGAAGCUGAAACGGUGCACUUAGGAUAUCUUCCGCCAGAAAACAUGAGGAUCACCCAUGUUCAGUUAACG : 0.00754
ACAUGAGGAUCACCCAUGUCCUAAAAUGAGGCGAAUACGGCCAAGGAUAUUGGAACAACAGAAGUCAAGAAGGUGGCUAAAUUA : 0.0283
GUCGGAGUGGAGAAGGCGCCAACGUAAGCGCGGCGAGGAUAUCCCUACCCUACAUGAGGAUCACCCAUGUCGACGAGAGUAUCG : 0.00799
CAGGCAUGUAUAGGAUAUUGGGCUGGACGCGUUGUCGGUCGUUCCAACAUGAGGAUCACCCAUGUCAAGAAGGAUAUGCAUUCG : 0.0273
AUUGAACAUGAGGAUCACCCAUGUGCGGGUGGUAUAGGAUAUGCAGGAUCCUAAGAGUAAGCAGAAGGAUACACCG : 0.0334
CCACAGUAUAAAGGAUAUGCGGCCACGGCAACAGCAGAAGGUUAUGCCACUGUACAUGAGGAUCACCCAUGUCCAACUUUCCCU : 0.0119
ACUAGGGACCUGACAUGAGGAUCACCCAUGUUCUCGGAUCACAAGGAUAUCCGCACGUACCUGUGGGAGAAGGUGUCGUCCCAC : 0.0218
GCAUUCGGAUUAGGAUAUCUACAUCAUUCGUUUGGGAUAGAGCUACAUGAGGAUCACCCAUGUGUAGAGAAGGAAUAUGAACAC : 0.0839
UUAGUAACCACAGGAUAUGCGGACGGGUGAAGGGCAGAAGGGUGGGAGUGCACAUGAGGAUCACCCAUGUAACACGCCAUAUUU : 0.00865
UCGGUACAUGAGGAUCACCCAUGUCGUCACAGAGCAGGAUAUUCAGGCUUCAGAGGUCGCGAAGAAGGGCUGGUGC : 0.00902

Dear colleague, please send me the reported apparent Kd for CCUAGACAUGAGGAUCACCCAUGUUAUUGUCUUCAAGGAUAUCGAUGUCUCUCAUAGGCACGAGAAGGUGACUCCU when you can. 0.0671

Dear colleague, please send me the reported apparent Kd for UGACGUGGUAAGAAGGCAAGAGCAGGGCAGGAUUGAGGAUAUUACGGACAGACAUGAGGAUCACCCAUGUAGAGCCAUAACCGG when you can. 0.00789

Dear colleague, please send me the reported apparent Kd for AAAUGCAUUCGAGGAUAUGUCAUGAUGUUGUAAACAGAAGGCGAGGCAUCGACAUGAGGAUCACCCAUGUGCACAGGUAAAAGU when you can. 0.0164

Dear colleague, please send me the reported apparent Kd for ACAAUAAAUCAAGGAUAUGAACGAAGCAAGUGAUCAGAAGGUGAAAUAAACCCAUAAACUCCAACAUGAGGAUCACCCAUGUGA when you can. 0.0355

Attribution: the EternaBench riboswitch data
